Please provide measured Population Normal (%) for the entries that follow.
test system: Fibroblast; assay: Multiplex assay against human fibroblast; format: toxicity, cell-based; conditions: 24 h, 10 µM, compound concentration 10 uM, replicate 2
Numbers only, in %.

Known Population Normal (%) results, listed for orientation:
{"columns": ["Molecule", "Population Normal (%)"],
 "data": [
  ["CC(C)OC(=O)N1CCC(Oc2ncnc3c2cnn3-c2ccc(S(C)(=O)=O)cc2F)CC1", 97],
  ["CN1CCN(Cc2ccc(Nc3ncc(Cl)c(Nc4ccccc4S(=O)(=O)N(C)C)n3)cc2)CC1", 85],
  ["CNCc1ccccc1-c1csc([C@@H](C)Nc2nc(C)nc3cc(OC)c(OC)cc23)c1", 55]
]}

Parameter requested: Population Normal (%). Apply to each item below.
1. C=CC(=O)Nc1ccc2[nH]c(=O)n(C3CCN(Cc4ccc(-c5nc6cc[nH]c(=O)c6cc5-c5ccccc5)cc4)CC3)c2c1
2. Cl.O=C(O)c1cc(-c2ccc(C3CCNCC3)cc2)c2ccc(-c3ccc(C(F)(F)F)cc3)cc2c1
3. C[C@]12CC[C@@H]3c4ccc(O)cc4CC[C@H]3[C@@H]1CC[C@@H]2O
4. COC(=O)C1=C(C)NC(C)=C(C(=O)OCCCN2CCC(c3ccccc3)(c3ccccc3)CC2)[C@H]1c1cccc([N+](=O)[O-])c1
5. O=C(c1cc2c(cc1F)OC(c1ccc(F)cc1)(c1ccc(Cl)cc1Cl)O2)N1CCOCC1 (stereo not drawn)

[A]
1: 59; 2: 91; 3: 96; 4: 88; 5: 93
